target: Human PDGF-BB (human, UniProt P01127 82-190); assay: cell-based or functional assay
Sequence (P01127 82-190 limits assumed): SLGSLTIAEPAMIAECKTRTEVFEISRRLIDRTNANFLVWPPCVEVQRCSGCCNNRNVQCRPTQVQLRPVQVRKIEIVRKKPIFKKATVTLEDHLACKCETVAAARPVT
measured_endpoint: hPDGF-BB NIH-3T3 Proliferation IC50 (nM)
Expressed in nM, but write only the number.

The binder listed as CL-33587-IgG (antibody, V domains shown) VH: EVTLRESGPALVKPTQTLTLTCTFSGFSLSTYGMGVGWIRQPPGKALEWLANIWWDDDKYYNPSLKNRLTISKDTSKNQVVLTMTNMDPVDTATYYCARIQSMWTRYDFDYWGQGTMVTVSS VL: EIVLTQSPGTLSLSPGERATLSCERSSGDIGDSYVSWYQQKPGQAPRLVIYADDQRPSGIPDRFSGSGSGTDFTLTISRLEPEDFAVYYCQSYDINIDIVFGGGTKVEIK has a reported hPDGF-BB NIH-3T3 Proliferation IC50 of 0.046

The binder listed as CL-33855-IgG (antibody, V domains shown) VH: EVTLRESGPALVKPTQTLTLTCTFSGFSLSTYGMGVGWIRQPPGKALEWLANIWWDDDKYYNPSLKNRLTISKDTSKNQVVLTMTNMDPVDTATYYCARIETFGPKYSFDYWGQGTMVTVSS VL: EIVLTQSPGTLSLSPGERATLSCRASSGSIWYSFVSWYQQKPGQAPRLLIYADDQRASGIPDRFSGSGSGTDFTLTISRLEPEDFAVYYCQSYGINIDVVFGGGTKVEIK has a reported hPDGF-BB NIH-3T3 Proliferation IC50 of 0.037

The binder listed as CL-33578-IgG (antibody, V domains shown) VH: EVTLRESGPALVKPTQTLTLTCTFSGFSLSTYGMGVGWIRQPPGKALEWLANIWWDDDKYYNPSLKNRLTISKDTSKNQVVLTMTNMDPVDTATYYCARIQSGWTNYEFDYWGQGTMVTVSS VL: EIVLTQSPGTLSLSPGERATLSCERSSGDIGDSYVSWYQQKPGQAPRLVIYADDQRPSGIPDRFSGSGSGTDFTLTISRLEPEDFAVYYCQSYDINIDIVFGGGTKVEIK has a reported hPDGF-BB NIH-3T3 Proliferation IC50 of 0.033
